Recorded values, source paper PMC3823688.

molecules and their reported relative activity of CNR on compound
TESTED TARGET: chloramphenicol nitroreductase (CNR) (Haemophilus influenzae, UniProt Q57431)
Sequence (Q57431 whole entry): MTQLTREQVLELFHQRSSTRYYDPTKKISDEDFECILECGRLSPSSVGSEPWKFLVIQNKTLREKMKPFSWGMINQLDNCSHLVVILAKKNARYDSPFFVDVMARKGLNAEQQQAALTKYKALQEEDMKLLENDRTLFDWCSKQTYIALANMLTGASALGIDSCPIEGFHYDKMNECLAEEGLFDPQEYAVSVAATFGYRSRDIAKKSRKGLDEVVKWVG
PROCEDURE TEXT: reduction of compounds by CNR
Type: biochemical, H. influenzae
SETUP CONDITIONS: initial rate normalized to 3 = 100%; 100 µM compound
Respond numerically; units are % and should not be typed.

Reference set (3 entries):
MOLECULE | relative activity of CNR on compound / %
CCC[C@@H]1C[C@@H](C(=O)NC([C@H]2O[C@H](SC)[C@H](O)[C@@H](O)[C@H]2O)[C@@H](C)SCCOCCSCC(=O)N[C@H](CO)[C@H](O)c2ccc([N+](=O)[O-])cc2)N(C)C1 (stereo partly shown) [Compound 23] | 133
CCC[C@@H]1C[C@@H](C(=O)NC([C@H]2O[C@H](SC)[C@H](O)[C@@H](O)[C@H]2O)[C@@H](C)SCCOCCSSCCOCCSCC(=O)N[C@@H](CO)[C@H](O)c2ccc([N+](=O)[O-])cc2)N(C)C1 (stereo partly shown) [Compound 24] | 174
NC[C@H]1O[C@H](O[C@H]2[C@H](O)[C@@H](O[C@@H]3O[C@H](CSCCOCCSSCCOCCSCC(=O)N[C@H](CO)[C@H](O)c4ccc([N+](=O)[O-])cc4)[C@@H](O)[C@H](N)[C@H]3O)[C@H](N)C[C@@H]2N)[C@H](N)C[C@@H]1O [Compound 22] | 117

Now for another entry.
**Query** If you can, please state the reported relative activity of CNR on compound value of O=C(CSCCOCCSSCCOCCSCC(=O)N[C@H](CO)[C@H](O)c1ccc([N+](=O)[O-])cc1)N[C@H](CO)[C@H](O)c1ccc([N+](=O)[O-])cc1 [Compound 26] .
**Result** 220
